Measured values drawn from paper PMC6409085 for this set.

# system-name: SfurOBP11 (Sogatella furcifera)
# test-summary: biochemical
# Type: binding
# condition-context: ligand concentration 2, replicate 1
Here the recorded Fluorescence intensity, fluorescence competitive binding assay, OBP11 is given for each entry.
measurement-name: Fluorescence intensity, fluorescence competitive binding assay, OBP11

INSERT INTO measurements (compound, value_measured) VALUES
  ('c1ccc2ccccc2c1 [naphthalene]', 34403),
  ('CCCCCCCC=O [octanal]', 24279),
  ('CCCCCCCCCCOCCCCCCCCCC [didecyl ether]', 43164),
  ('COC(=O)c1ccccc1 [benzoic acid methylester]', 27311),
  ('C=C1CC/C=C(\C)CC[C@@H]2[C@@H]1CC2(C)C [β-caryophyllene]', 23970),
  ('C/C(=C\CO)CCC[C@H](C)CCC[C@H](C)CCCC(C)C [plant alcohol]', 16266),
  ('CC(=O)c1ccccc1 [acetophenone]', 26535),
  ('OC1CCCCC1 [cyclohexanol]', 24375),
  ('O=C(c1ccccc1)c1ccccc1 [benzophenone]', 21450);

====

Here the recorded Fluorescence competitive binding assay, OBP2 (raw fluorescence reading) is given for each entry.
# system-name: SfurOBP2 (Sogatella furcifera, UniProt V5T759)
# Sequence (V5T759 entry or part of it): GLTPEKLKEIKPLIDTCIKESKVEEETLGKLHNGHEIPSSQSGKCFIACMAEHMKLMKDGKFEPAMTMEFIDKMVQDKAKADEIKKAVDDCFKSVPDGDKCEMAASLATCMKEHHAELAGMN
# test-summary: biochemical
# Type: binding
# condition-context: ligand concentration 6 (unit not given), replicate column 3 of 3
measurement-name: Fluorescence competitive binding assay, OBP2 (raw fluorescence reading)

INSERT INTO measurements (structure_smiles, value_measured) VALUES
  ('c1ccc2ccccc2c1', 22519),
  ('CCCCCCCCCCCCO', 15812),
  ('OC1CCCCC1', 18943),
  ('CCCCCCCC=O', 20651),
  ('CC1=CC[C@@H](C(C)(C)O)CC1', 20572),
  ('CCCCCCCCCCCCCCCCCC', 24859),
  ('CC(=O)/C=C/C1=C(C)CCCC1(C)C', 19617);

====

# system-name: SfurOBP11 (Sogatella furcifera, UniProt V5T6E3)
# Sequence (V5T6E3 entry or part of it): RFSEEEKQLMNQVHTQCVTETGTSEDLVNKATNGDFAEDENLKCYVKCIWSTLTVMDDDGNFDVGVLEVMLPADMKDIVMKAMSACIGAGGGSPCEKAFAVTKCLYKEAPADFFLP
# test-summary: biochemical
# Format: binding
# condition-context: ligand concentration 8, replicate 1
measurement-name: Fluorescence intensity, fluorescence competitive binding assay, OBP11

INSERT INTO results (molecule, value_measured) VALUES
  ('CCCCCCCCCCCCCCCC [n-hexadecane]', 20324),
  ('CCCCCC(C)=O [2-heptanone]', 23438),
  ('CCCCCCCCC=O [nonanal]', 29344),
  ('C=C/C(C)=C/C/C=C(\C)CCC=C(C)C [α-farnesene]', 31638),
  ('CC(=O)c1ccccc1 [acetophenone]', 25045),
  ('CCCCCCCC [n-octane]', 27943),
  ('CCCCCCCC=O [octanal]', 29061),
  ('C[C@@H]1CC[C@H]2C(C)(C)[C@H]3C[C@@]12CC[C@@]3(C)O [cedrol]', 32906),
  ('CCCCCCCCCCC [n-hendecane]', 31948),
  ('CC(=O)/C=C/C1=C(C)CCCC1(C)C [β-Ionone]', 23184),
  ('OC1CCCCC1 [cyclohexanol]', 24760),
  ('O=C(c1ccccc1)c1ccccc1 [benzophenone]', 19997),
  ('c1ccc2ccccc2c1 [naphthalene]', 32155);

====

Here the recorded Fluorescence competitive binding assay, OBP2 (raw fluorescence reading) is given for each entry.
# system-name: SfurOBP2 (Sogatella furcifera)
# test-summary: biochemical
# Assay type: binding
# condition-context: ligand concentration 16 (unit not given), replicate column 3 of 3
measurement-name: Fluorescence competitive binding assay, OBP2 (raw fluorescence reading)

INSERT INTO results (compound, system_name, value_measured) VALUES
  ('CCCCCCCCCCCCCCCC', 'SfurOBP2 (Sogatella furcifera)', 11282),
  ('CC1=CC[C@@H](C(C)(C)O)CC1', 'SfurOBP2 (Sogatella furcifera)', 13539),
  ('C=C/C(C)=C/C/C=C(\C)CCC=C(C)C', 'SfurOBP2 (Sogatella furcifera)', 18663),
  ('C=CC(C)(O)CCC=C(C)CCC=C(C)C (mixture of isomers)', 'SfurOBP2 (Sogatella furcifera)', 11449),
  ('CCCCCCCCCCC', 'SfurOBP2 (Sogatella furcifera)', 12414),
  ('CCCCCCCCCCCCCC', 'SfurOBP2 (Sogatella furcifera)', 20069),
  ('CCCCCC=O', 'SfurOBP2 (Sogatella furcifera)', 13014),
  ('C=C1CC/C=C(\C)CC[C@@H]2[C@@H]1CC2(C)C', 'SfurOBP2 (Sogatella furcifera)', 16267),
  ('COC(=O)c1ccccc1', 'SfurOBP2 (Sogatella furcifera)', 13740),
  ('CCCCCCCCCCCCO', 'SfurOBP2 (Sogatella furcifera)', 13096),
  ('Cc1cc(C(C)(C)C)c(O)c(C(C)(C)C)c1', 'SfurOBP2 (Sogatella furcifera)', 12411),
  ('C/C(=C\CO)CCC[C@H](C)CCC[C@H](C)CCCC(C)C', 'SfurOBP2 (Sogatella furcifera)', 18242),
  ('OC1CCCCC1', 'SfurOBP2 (Sogatella furcifera)', 13046),
  ('CC(C)COC(=O)CCCCC(=O)OCC(C)C [DA(diisobutyl adipate)]', 'SfurOBP2 (Sogatella furcifera)', 14085),
  ('CCCCCCC=CCO', 'SfurOBP2 (Sogatella furcifera)', 14367),
  ('CC/C=C\CCO [(Z)-3-hexenol]', 'SfurOBP2 (Sogatella furcifera)', 13106),
  ('CCCCCCCCCCCCCCCC(=O)OC [MH(methyl hexadecanoate)]', 'SfurOBP2 (Sogatella furcifera)', 59678),
  ('Cc1ccc(C(C)C)cc1', 'SfurOBP2 (Sogatella furcifera)', 13282),
  ('CCCCCCCCCCOCCCCCCCCCC', 'SfurOBP2 (Sogatella furcifera)', 50416),
  ('CCCCCC(C)=O', 'SfurOBP2 (Sogatella furcifera)', 13817),
  ('C=C(C)C1CC=C(C)CC1 (single isomer, unassigned; (+)) [(+)-limonene]', 'SfurOBP2 (Sogatella furcifera)', 12627),
  ('c1ccc2ccccc2c1', 'SfurOBP2 (Sogatella furcifera)', 15169),
  ('O=C(c1ccccc1)c1ccccc1', 'SfurOBP2 (Sogatella furcifera)', 11673),
  ('C[C@@H]1CC[C@H]2C(C)(C)[C@H]3C[C@@]12CC[C@@]3(C)O', 'SfurOBP2 (Sogatella furcifera)', 21108),
  ('CCCCCCCCCCCCCCCCCCC', 'SfurOBP2 (Sogatella furcifera)', 23038),
  ('CC(=O)/C=C/C1=C(C)CCCC1(C)C', 'SfurOBP2 (Sogatella furcifera)', 12910),
  ('CC(=O)c1ccccc1', 'SfurOBP2 (Sogatella furcifera)', 16123),
  ('CCCCCCCC', 'SfurOBP2 (Sogatella furcifera)', 11106),
  ('CCCCCCCCCCCCC=O', 'SfurOBP2 (Sogatella furcifera)', 18645),
  ('C=CC(C)(O)CCC=C(C)C (centres unmarked)', 'SfurOBP2 (Sogatella furcifera)', 14664),
  ('CCCCCCCCCCCCCCCCCC', 'SfurOBP2 (Sogatella furcifera)', 19350),
  ('CCCCCCCCC=O', 'SfurOBP2 (Sogatella furcifera)', 15877),
  ('CCCCCCCC=O', 'SfurOBP2 (Sogatella furcifera)', 16529),
  ('CCC/C=C/CO [(E)-2-hexenol]', 'SfurOBP2 (Sogatella furcifera)', 12095),
  ('O=Cc1ccccc1', 'SfurOBP2 (Sogatella furcifera)', 12131);
